Sourced from paper PMC9090415

target: P. falciparum apicoplast DNA polymerase (Pf-apPOL) (Plasmodium falciparum); test: Fluorescence-based high-throughput DNA polymerase assay (molecular beacon), primary screen and dose-response; format: biochemical; conditions: DRC-2; 40'; concentration 80;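 for % inhibition Apol 40': compound concentration given in µM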
Sequence (Q8ILY1 entry or part of it): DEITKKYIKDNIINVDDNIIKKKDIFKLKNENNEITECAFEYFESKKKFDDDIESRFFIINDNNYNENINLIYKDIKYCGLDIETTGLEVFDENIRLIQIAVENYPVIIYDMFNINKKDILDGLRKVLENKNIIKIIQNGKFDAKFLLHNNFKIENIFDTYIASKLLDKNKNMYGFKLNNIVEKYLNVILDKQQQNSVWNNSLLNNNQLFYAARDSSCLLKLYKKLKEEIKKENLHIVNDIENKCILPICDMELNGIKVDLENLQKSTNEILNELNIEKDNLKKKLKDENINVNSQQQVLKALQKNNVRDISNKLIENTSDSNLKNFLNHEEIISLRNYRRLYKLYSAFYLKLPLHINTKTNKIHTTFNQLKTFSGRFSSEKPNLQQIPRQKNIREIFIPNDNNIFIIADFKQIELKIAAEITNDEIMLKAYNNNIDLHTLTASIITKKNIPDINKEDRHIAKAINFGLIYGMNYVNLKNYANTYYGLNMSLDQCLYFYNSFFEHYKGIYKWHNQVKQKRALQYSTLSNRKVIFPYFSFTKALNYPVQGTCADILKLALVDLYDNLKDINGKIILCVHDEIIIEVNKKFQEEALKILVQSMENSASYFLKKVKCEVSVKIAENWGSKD
MEASURE: % inhibition Apol 40' (%)
Answer in %, number only, no unit symbol.

Look over these answered cases.
compound="Cc1cc(C)nc(Nc2nc(CC(=O)Nc3nc(-c4ccco4)cs3)cs2)n1 [Molecule 92]" test_value=59
compound="CC1(C)CC(=O)C2=C(C1)OC1=C(C(=O)CC(C)(C)C1)C2c1ccc(O)cc1 [KU0194226]" test_value=59
compound="CCCCCCCCCCCCCCCCCC(=O)CCN(C)C [KU0271928]" test_value=61

For the next question, use this compound.
Exercise: # % inhibition Apol 40' lookup, item COc1ccc(-c2cc(=O)c3cc(O)ccc3o2)cc1OC [KU0193655]
Key: 61

----------
Target: P. falciparum apicoplast DNA polymerase (Pf-apPOL) (Plasmodium falciparum)
Test: Fluorescence-based high-throughput DNA polymerase assay (molecular beacon), primary screen and dose-response
Format: biochemical
Details: DRC-2, 5', concentration 5
From the text: The HT assay employs a molecular beacon, a stem-loop DNA template with a Cy3 dye and the Black Hole Quencher on the 3′ and 5′ ends of the DNA, respectively. Pf-apPOL concentration is based on a calculated absorptivity of ε280 = 56750 M^−1 cm^−1. […] To identify apPOL inhibitors we utilised our previously developed high-throughput DNA polymerase assay. […] The assay accurately recapitulates the kinetic behaviour of apPOL, as measured through more conventional low-throughput gel-based assays. […]
# key: entry, value: % inhibition Apo pol 5'
Answer in %, number only, no unit symbol.

Look over these answered cases.
compound="O=C(NNC(=O)C(F)(F)Sc1ccccc1)c1ccsc1 [Molecule 68, O=C(C(Sc1ccccc1)(F)F)NNC(=O)c1cscc1]" test_value=10
compound=Cc1ncc(CSc2nc(C(C)(C)C)cs2)c(CO)c1O test_value=10
compound=CS(=O)(=O)c1cccc(C(=O)Nc2nnc(-c3ccno3)o2)c1 test_value=13
compound=O=[N+]([O-])c1cc2c(cc1CN1CCN(c3cccc(Cl)c3)CC1)OCO2 test_value=11
compound=CN1CC(=Cc2ccco2)C(=O)C(=Cc2ccco2)C1 test_value=34

Exercise: # % inhibition Apo pol 5' lookup, item `O=C(O)CC1=NN(c2cccc([N+](=O)[O-])c2)C(=O)C1`
Key: 36

Exercise: # % inhibition Apo pol 5' lookup, item CCOc1ccccc1-c1nc(-c2ccc(=O)[nH]c2)no1 [Molecule 76, CCOc1ccccc1c1onc(n1)c1ccc(=O)[nH]c1]
Key: 5

Exercise: # % inhibition Apo pol 5' lookup, item `O=C(Nc1nnc(-c2ccno2)o1)c1ccc2ncsc2c1`
Key: 11

Exercise: # % inhibition Apo pol 5' lookup, item `O=C(Nc1nnc(-c2ccno2)o1)c1ccc2c(c1)OCO2`
Key: 2.76

----------
target: P. falciparum apicoplast DNA polymerase (Pf-apPOL) (Plasmodium falciparum); test: Fluorescence-based high-throughput DNA polymerase assay (molecular beacon), primary screen and dose-response; type: biochemical; conditions: supplemental file 2, sheet IC50 nontoxic compounds; Pf-apPOL
MEASURE: pIC50
Quick note: pIC50 means taking -log10 of the concentration in moles per liter.

compound="Cc1ccc(NC(=O)Cn2ccc3c(=O)[nH]ccc32)cc1 [Molecule 50]" test_value=4.86
compound="COc1cccc(C(=O)N2CCc3c(nc4cc(-c5ccccc5)[nH]n4c3=O)C2)c1OC [Molecule 22]" test_value=5.14
compound="COc1ccc(/C=C/c2cc(C(=O)O)c3ccccc3n2)cc1 [Molecule 5]" test_value=5.41
compound="CSC1=C(C#N)C(=C(C#N)C#N)NC(c2ccccc2)=N1 [Molecule 2]" test_value=5.25
compound="CSC(C)C(=O)C=CN(C)C (centres unmarked) [Molecule 71]" test_value=4.57

Exercise: # pIC50 lookup, item COCC(=O)Nc1c(-c2cccc(F)c2)nc2cc(C)ccn12 [Molecule 44]
Key: 4.95

Exercise: # pIC50 lookup, item COc1ccccc1CC(=O)N1CCc2c(nc3cc(-c4ccccc4Cl)[nH]n3c2=O)C1 [Molecule 49]
Key: 4.90

Exercise: # pIC50 lookup, item CCOc1ccccc1-c1nc(-c2ccc(=O)[nH]c2)no1 [Molecule 76]
Key: 4.41
